meta.source: PubChem BioAssay (NCI)

Tested on: MCF7 breast
assay summary: NCI tumour cell line growth inhibition, 48 h
Assign TGI to each entry below.

Field: example entries. Status: answers known.
>>> print(df.to_string())
                                   compound  test_value
0  O=C1CSC(c2c(O)ccc3ccccc23)N1n1c(=S)[nH]nc(/C=C/c2c(O)ccc3ccccc23)c1=O (stereo not given)     18.9 µM
1  Nc1ccc(S(=O)(=O)c2ccc(N=[N+]([O-])c3ccc(S(=O)(=O)c4ccc(N)cc4)cc3)cc2)cc1    > 100 µM
2  CCOc1ccc(-n2c(=O)n3c(Nc4ccc(Cl)cc4)nc4c(c(=O)n(C)c(=O)n4C)n3c2=O)cc1    > 100 µM
3  CS(=O)(=O)OC1CCN(C2(c3cccc(O)c3)CCCCC2)CC1    > 100 µM

The record that follows has no TGI shown yet.
Record COc1cc(/C=N/O)nc(-c2ccccn2)c1 . Reported TGI: > 100 µM

---

System: TK-10 renal
assay summary: NCI tumour cell line growth inhibition, 48 h
property name: TGI (µM)
Answers are plain numbers, in µM.

Field: example entries. Status: answers known.
In [3]: df
Out[3]:
                                   compound  property_name  units_text  test_value
0  Cc1ccc(N2C(=O)C(O)=C(C(=O)C(C)(C)C)C2c2ccc([N+](=O)[O-])cc2)cc1 (stereo not given)            TGI          µM        90.8
1  CCN1CCN(c2cc(C)nc(NCc3cc(Nc4ccnc5cc(Cl)ccc45)ccc3F)n2)CC1            TGI          µM        45.4

The record that follows has no TGI shown yet.
Record Cn1c2cc(Cl)ccc2c2ccc3c(c21)C(=O)C=CC3=O . Reported TGI: 56.6

---

System: NCI-H23 lung
assay summary: NCI tumour cell line growth inhibition, 48 h
property name: TGI (µM)
Numbers only, in µM.

In [3]: df
Out[3]:
                                   molecule  tested_system  test_value
0  CC[C@@]1(O)C(=O)OCc2c1cc1n(c2=O)Cc2c-1nc1ccccc1c2/C=N\NC(=O)C(N)=O   NCI-H23 lung        3.67

The record that follows has no TGI shown yet.
Record Cc1ccc(N2C(=O)C(O)=C(C(=O)C(C)(C)C)C2c2ccc([N+](=O)[O-])cc2)cc1 (stereo not given) . Reported TGI: 35.2

---

Test system: SF-295 CNS
assay summary: NCI tumour cell line growth inhibition, 48 h
property name: TGI

                                   molecule  test_value
0              Cc1noc(C)c1N=Nc1ccc2nonc2c1N    > 100 µM
1  C#CCOc1cccc(Nc2ncnc3c2ncn3C2CCN(C(=O)CCl)C2)c1 (configuration not stated)    > 100 µM
2  COC(=O)C1CCC(N2C(=O)CCC2C(=O)OC)=N1 (configuration not stated)    > 100 µM
3           CN(Cc1ccccc1)c1nc(=[N+](C)C)ss1    > 100 µM
4  c1cc(-c2cnn3nc(N4CCOCC4)ccc23)nc(NC2CC2)n1     > 25 µM
5           COc1ccc(NCc2c(O)ccc3ccccc23)cc1    > 100 µM

The record that follows has no TGI shown yet.
Record CC(C)c1ccc(O)c(O)c(=O)c1 (tested in a mixture with another compound) . Reported TGI: > 100 µM
